Target: Tyrosyl-tRNA synthetase, putative (Trypanosoma cruzi (strain CL Brener))
Assay: Trypanosoma cruzi tyrosyl tRNA synthetase (TcYRS) _High Tyrosine SOP; further: in the data most compounds retested in dose-response had high values
Format: functional
Parameters: scale not given: direction of the effect not stated beside the values
Settings: 30 µM
Below, each entry is listed with its recorded Percent Effect.
Kindly provide the numeric value in % only, without the unit symbol.

Fc1ccc(-c2nnc(CN3CCn4c(nnc4C4CC4)C3)o2)cc1 = 10

## Task Which Percent Effect reading was recorded for the molecule O=C(NCCOc1ccc(Cl)cc1)N1CCS(=O)(=O)CC1 ?
## Result -0.478

## Task Which Percent Effect reading was recorded for the molecule CC(O)(CN1CCC2(CC1)OCCO2)c1cccc(C(F)(F)F)c1 (stereo unspecified) ?
## Result 3.92

## Task Which Percent Effect reading was recorded for the molecule Cn1cnc2c1CCN(Cc1cccc(C(N)=O)c1)C2 ?
## Result -0.478

## Task Which Percent Effect reading was recorded for the molecule CN(C)CC(=O)N1CCC2(CC1)COC(COc1ccccn1)C2 (stereo unspecified) ?
## Result 5.79

## Task Which Percent Effect reading was recorded for the molecule Cc1ccc(NC(=O)C(C)N2CCCN(c3nccs3)CC2)c(C)c1 (stereo unspecified) ?
## Result 2.39

* * *

Molecular target: Proteasome subunit beta (Trypanosoma cruzi) (UniProt O96673)
Assay: Trypanosoma cruzi proteasome chymotrypsin-like activity (TcProtChymo) assay. Further: in the data most compounds retested in dose-response had high values.
Type: functional
Set-up: scale not given: direction of the effect not stated beside the values
Conditions: 9.37 µM
ASSAY METRIC: Percent Effect (%)
Kindly provide the numeric value in % only, without the unit symbol.

Record excerpt, results attached:
Cn1cccc1-c1cc(C(=O)N2CCCC2c2cccnc2)[nH]n1 (stereo unspecified) = 16.6
O=C(NCCOc1ccc(Cl)cc1)N1CCS(=O)(=O)CC1 = 6.74
Cc1csc(N2CCCN(C(=O)c3c(C)oc(C)c3C)CC2)n1 = 20.1

## Task Form: Entry = CCc1ccc(O)c(C(=O)NC2CCN(C(=O)OC)CC2)c1 | System = Proteasome subunit beta (Trypanosoma cruzi) (UniProt O96673) | Percent Effect = ____
## Result 5.89

## Task Form: Entry = Cn1ccnc1CN1CCOCC(Cc2ccccn2)C1 (stereo unspecified) | System = Proteasome subunit beta (Trypanosoma cruzi) (UniProt O96673) | Percent Effect = ____
## Result 11.3

## Task Form: Entry = CN1CCC/C1=N\S(=O)(=O)c1ccc(NC(=O)CCc2cccs2)cc1 | System = Proteasome subunit beta (Trypanosoma cruzi) (UniProt O96673) | Percent Effect = ____
## Result 5.79

* * *

Biological target: AMP-activated protein kinase, AMPK (Homo sapiens) (UniProt P54646+O43741+P54619+Q9UGJ0+Q9Y478+Q13131+Q9UGI9)
Assay: AMP-dependent Kinase enzyme assay. An in vitro enzyme assay that detects ADP turnover that is directly proportional to AMPK activity. This uses naive AMPK that is activated during the assay with MK-8722
Format: functional
Design: scale not given: direction of the effect not stated beside the values
Conditions: 30 µM
ASSAY METRIC: Percent Effect (%)
Kindly provide the numeric value in % only, without the unit symbol.

O=C(CCOc1ccccc1F)N1CCC(O)CC1 = 3.95

## Task Which Percent Effect reading was recorded for the molecule CSCCC(NC(N)=O)C(=O)NCc1cnn(-c2ccccc2)c1 (centres undefined) ?
## Result -5.05

## Task Which Percent Effect reading was recorded for the molecule C[C@@H]1CN(S(=O)(=O)N2CCCC2)CC[C@@]1(O)C1CCOCC1 ?
## Result -5.74

## Task Which Percent Effect reading was recorded for the molecule Cc1cc(-c2cnc(N3CCCC(C)C3)nc2C(C)C)on1 (centres undefined) ?
## Result 10.4

## Task Which Percent Effect reading was recorded for the molecule Cn1cnc(S(=O)(=O)N2CCCCc3ccccc32)c1 ?
## Result -0.149

## Task Which Percent Effect reading was recorded for the molecule COc1ncc(CN2CCC3(CCNC(=O)CC3)CC2)cn1 ?
## Result -1.6

## Task Which Percent Effect reading was recorded for the molecule Cc1noc(C)c1-c1n[nH]c2c1CN(S(=O)(=O)c1cccs1)CC2 ?
## Result 2.21

## Task Which Percent Effect reading was recorded for the molecule O=C(NC1CCCC1)c1cc(Cn2cnc3ccccc32)on1 ?
## Result 0.401

## Task Which Percent Effect reading was recorded for the molecule Cc1nsc(N2CCN(CC(=O)N(C3CC3)C(C)C3CC3)CC2)n1 (centres undefined) ?
## Result 7.84

## Task Which Percent Effect reading was recorded for the molecule CC(CC(=O)c1ccco1)NC(=O)c1ccccn1 (centres undefined) ?
## Result -8.76

## Task Which Percent Effect reading was recorded for the molecule Cc1noc(C)c1CC(=O)N[C@@H]1CC[C@@H](Oc2ccccc2)[C@@H]1O ?
## Result 5.13

## Task Which Percent Effect reading was recorded for the molecule CC(C)N1CC(c2ccnc(Nc3nccs3)n2)C1 ?
## Result 13.4

## Task Which Percent Effect reading was recorded for the molecule CC(c1nc(-c2ccccc2)no1)N1CCc2c(ncn2C2CC2)C1 (centres undefined) ?
## Result 10.5

## Task Which Percent Effect reading was recorded for the molecule Cc1cc(-c2cc3nc(C)c(C)c(NCC4COCCO4)n3n2)no1 (centres undefined) ?
## Result 17.6

* * *

Target: Proteasome subunit beta (Trypanosoma cruzi) (UniProt O96673)
Sequence (whole entry): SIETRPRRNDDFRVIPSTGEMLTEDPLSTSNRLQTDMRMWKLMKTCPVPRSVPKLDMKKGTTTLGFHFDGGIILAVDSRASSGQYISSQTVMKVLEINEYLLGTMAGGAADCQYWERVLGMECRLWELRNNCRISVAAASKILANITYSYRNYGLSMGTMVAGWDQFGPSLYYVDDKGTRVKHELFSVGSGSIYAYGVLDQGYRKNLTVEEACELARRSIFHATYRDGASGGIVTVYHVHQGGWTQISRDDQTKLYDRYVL
Assay: Trypanosoma cruzi proteasome chymotrypsin-like activity (TcProtChymo) assay. Further: in the data most compounds retested in dose-response had high values.
Type: functional
Parameters: scale not given: direction of the effect not stated beside the values
Details: 9.37 µM
Decision: Percent Effect beneath 10% gives 1; Percent Effect meeting or exceeding 10% gives 0.

N#Cc1cccc(N2CC3(CCN(C(=O)c4cccnc4)C3)CC2=O)c1 (centres undefined) = 0
CC[C@H](C)Nc1nccc(-c2cnc3sc(C)c(C)n3c2=O)n1 = 0
O=C(c1ccnnc1)N1CCC2(CC1)CC(N1CCOCC1)C2 = 0
COc1cc(C)nc(N2CCN(C(=O)COCC(F)(F)F)CC2)n1 = 1
c1cnnc(N2CCCC2CNCc2ccsc2)c1 (centres undefined) = 1
FC(F)(F)Cn1ccnc1CN1CCCC1c1noc(C2CC2)n1 (centres undefined) = 0
c1cnnc(N2CCCC2CNCc2nc(C3CC3)no2)c1 (centres undefined) = 1
CCOC1COC2(CCN(Cc3cccc(F)c3)CC2)C1 (centres undefined) = 1

## Task In plain terms, does CNc1snc(C)c1C(=O)N1CCCC(n2nc(C)cc2C)C1 (centres undefined) come in under 10% for Percent Effect?
## Result 1

## Task In plain terms, does CN(Cc1ccccc1)CC(O)Cn1cnc2ccccc2c1=O (centres undefined) come in under 10% for Percent Effect?
## Result 1

## Task In plain terms, does COc1ccc(OCCN(C)C(=O)NC(C)c2nncn2C)cc1 (centres undefined) come in under 10% for Percent Effect?
## Result 0

## Task In plain terms, does Fc1ccc(CN2CCC(c3n[nH]c4ncccc34)CC2)cc1F come in under 10% for Percent Effect?
## Result 1

## Task In plain terms, does CC(C)N(C)C(=O)CN1CCCC(c2ccc(C(=O)O)cc2)C1 (centres undefined) come in under 10% for Percent Effect?
## Result 0

* * *

Target: Ubiquitin-activating enzyme e1, putative (Leishmania donovani (strain BPK282A1)) (UniProt E9BSI1)
Sequence (E9BSI1 as listed by the source): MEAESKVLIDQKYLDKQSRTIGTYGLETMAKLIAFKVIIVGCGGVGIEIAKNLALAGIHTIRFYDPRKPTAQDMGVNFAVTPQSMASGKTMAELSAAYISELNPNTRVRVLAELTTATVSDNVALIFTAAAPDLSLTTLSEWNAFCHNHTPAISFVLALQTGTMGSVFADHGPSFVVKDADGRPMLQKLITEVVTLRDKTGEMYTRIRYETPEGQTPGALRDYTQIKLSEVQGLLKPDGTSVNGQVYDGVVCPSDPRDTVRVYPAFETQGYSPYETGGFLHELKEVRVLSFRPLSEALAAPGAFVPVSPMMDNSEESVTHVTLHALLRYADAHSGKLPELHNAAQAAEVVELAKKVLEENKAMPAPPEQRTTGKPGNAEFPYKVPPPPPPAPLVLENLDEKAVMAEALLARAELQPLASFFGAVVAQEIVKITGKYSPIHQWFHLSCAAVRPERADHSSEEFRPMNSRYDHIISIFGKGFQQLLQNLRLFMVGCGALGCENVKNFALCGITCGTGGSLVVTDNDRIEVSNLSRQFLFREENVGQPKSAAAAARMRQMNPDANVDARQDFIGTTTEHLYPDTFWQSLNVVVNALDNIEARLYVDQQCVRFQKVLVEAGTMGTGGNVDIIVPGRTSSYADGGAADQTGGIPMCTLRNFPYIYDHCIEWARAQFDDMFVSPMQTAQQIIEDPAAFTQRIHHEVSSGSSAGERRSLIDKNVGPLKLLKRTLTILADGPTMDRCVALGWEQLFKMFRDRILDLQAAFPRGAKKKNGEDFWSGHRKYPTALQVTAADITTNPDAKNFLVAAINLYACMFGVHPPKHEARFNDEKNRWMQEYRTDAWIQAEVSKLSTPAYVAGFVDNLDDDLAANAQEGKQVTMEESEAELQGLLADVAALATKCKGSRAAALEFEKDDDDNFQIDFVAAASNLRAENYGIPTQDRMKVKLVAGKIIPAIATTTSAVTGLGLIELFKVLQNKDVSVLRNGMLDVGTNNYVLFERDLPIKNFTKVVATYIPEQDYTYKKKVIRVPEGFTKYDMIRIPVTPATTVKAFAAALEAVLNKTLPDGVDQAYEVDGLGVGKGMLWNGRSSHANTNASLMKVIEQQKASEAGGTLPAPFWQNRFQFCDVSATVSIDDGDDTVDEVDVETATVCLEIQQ
Assay: Leishmania donovani Ubiquitin Activating Enzyme (LdE1)
Assay type: functional
Design: scale not given: direction of the effect not stated beside the values
Conditions: 30 µM
Potency and affinity values are given separately.
Below, each entry is listed with its recorded Percent Effect.
Kindly provide the numeric value in % only, without the unit symbol.

Cc1nccn1-c1cccc(C2CCCN2S(=O)(=O)c2cn(C)cn2)n1 (centres undefined) = 1.33

## Task Which Percent Effect reading was recorded for the molecule Cc1ccoc1-c1nnc(CN2CCn3c(nnc3C3CC3)C2)o1 ?
## Result 0

## Task Which Percent Effect reading was recorded for the molecule CCn1nc2c(cc1=O)CN(Cc1nc(-c3ccccn3)no1)CC2 ?
## Result 12.8

## Task Which Percent Effect reading was recorded for the molecule O=C(NCCc1coc(-c2ccc(F)cc2)n1)NC1CCC(O)CC1 (centres undefined) ?
## Result 21.3

## Task Which Percent Effect reading was recorded for the molecule CCc1cc(O)nc(C2CCCN2C(=O)c2cc(C)no2)n1 (centres undefined) ?
## Result 17.3

## Task Which Percent Effect reading was recorded for the molecule CCc1nc(C2CCCN2C(=O)c2ccc3c(c2)nc(C)n3C)no1 (centres undefined) ?
## Result -2.67

## Task Which Percent Effect reading was recorded for the molecule COC(=O)c1cccn1C1CCN(Cc2ccccc2)CC1 ?
## Result 7.79

## Task Which Percent Effect reading was recorded for the molecule Nc1nc2nc(C3CCCN(C(=O)c4cscn4)C3)ccc2s1 (centres undefined) ?
## Result 22.7

## Task Which Percent Effect reading was recorded for the molecule CCc1[nH]ncc1C(=O)N1CCCC(n2ccnc2C(C)C)C1 (centres undefined) ?
## Result 13.3

## Task Which Percent Effect reading was recorded for the molecule Cc1cnn(CC2CCCN2C(=O)c2ccc(C(N)=O)cn2)c1 (centres undefined) ?
## Result 15.4

## Task Which Percent Effect reading was recorded for the molecule Cc1ncc(S(C)(=O)=O)c(C2CCCNC2)n1 (centres undefined) ?
## Result 2.7

## Task Which Percent Effect reading was recorded for the molecule CCc1ncc(C(=O)N2CCOCC2c2c(C)n[nH]c2C)s1 (centres undefined) ?
## Result 10.3

## Task Which Percent Effect reading was recorded for the molecule O=C(N1CCCC1)N1CCC2(CCCN(CCOc3ccccc3)C2)C1 (centres undefined) ?
## Result 16.9

## Task Which Percent Effect reading was recorded for the molecule O=C1COC2(CCN(C(=O)c3ccco3)CC2)CN1Cc1cccnc1 ?
## Result 14.3

## Task Which Percent Effect reading was recorded for the molecule Cc1ccc(Oc2ccc(NC(=O)NCC3CCOC3)cn2)cc1C (centres undefined) ?
## Result 10.3

## Task Which Percent Effect reading was recorded for the molecule Cn1cc(-c2nc(CNCCn3cccn3)cs2)cn1 ?
## Result 10.3

## Task Which Percent Effect reading was recorded for the molecule O=C(c1ccc2c(c1)OCO2)N1CCN(c2cnccn2)CC1 ?
## Result 12.8

## Task Which Percent Effect reading was recorded for the molecule Cc1cn[nH]c1C1CCCCN1C(=O)CCN1CCCCCC1 (centres undefined) ?
## Result 4

## Task Which Percent Effect reading was recorded for the molecule COc1cccc(CN2CCCC3(CCN(C(=O)c4ccco4)C3)C2)c1 (centres undefined) ?
## Result 9.09
